readout.type: melting point

| chemical.structure | melting point |
| --- | --- |
| Cc1cc(Cl)c(NC(=O)CBr)c(Cl)n1 | 184 to 185 °C |
| CSc1cc(C)nc(SC)c1NC(=O)CN1CCN(CCO)CC1 | 119 to 120 °C |
| Cc1cc(Br)c(NC(=O)CBr)c(Br)n1 | 197 to 199 °C |

**Q:** Which melting point value is on record for Cc1cc(Br)c([N+](=O)[O-])c(Br)n1 ?
**A:** 118 to 120 °C

**Q:** Which melting point value is on record for Cc1cc(Br)c(N)c(Br)n1 ?
**A:** 93 to 94 °C
